Target: human endothelial lipase (EL) (Homo sapiens)
Sequence (Q9Y5X9 21-500): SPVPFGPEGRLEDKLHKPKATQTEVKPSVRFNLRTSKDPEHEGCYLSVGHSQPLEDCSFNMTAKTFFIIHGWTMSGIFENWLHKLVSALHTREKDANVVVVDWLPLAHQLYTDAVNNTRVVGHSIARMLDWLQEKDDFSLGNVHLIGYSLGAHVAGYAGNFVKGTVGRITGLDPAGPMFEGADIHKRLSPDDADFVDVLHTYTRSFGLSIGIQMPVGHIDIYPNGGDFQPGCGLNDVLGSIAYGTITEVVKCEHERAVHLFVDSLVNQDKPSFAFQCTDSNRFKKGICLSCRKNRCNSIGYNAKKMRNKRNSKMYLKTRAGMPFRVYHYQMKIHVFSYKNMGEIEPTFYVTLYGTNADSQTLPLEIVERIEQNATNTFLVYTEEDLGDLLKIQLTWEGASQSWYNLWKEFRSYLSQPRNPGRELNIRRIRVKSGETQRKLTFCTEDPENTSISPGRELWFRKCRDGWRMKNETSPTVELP
Assay: Endothelial Lipase Assay, cell surface lipase activity (human)
Settings: cells expressing human EL, PLA1 substrate 10 μM, fluorescence reaction rate; several values in a cell are repeat determinations
Parameter: IC50. Scope: all listed entries.
The reply should contain only the number, in nM.

Consider the following illustrative entries.
chemicalSmiles | observedValue
O=C(CCCCCOc1cccc(F)c1)C(=O)NCc1nnc(-c2ccc(Oc3ccc(Cl)cc3)cc2)o1 | 3780
CN(C)CCNC(=O)c1ccc(-c2nnc(CNC(=O)C(=O)CCCCCCc3ccccc3)o2)cc1 | 4250
O=C(CCCCCOc1cc(F)ccc1F)C(=O)NCc1nnc(-c2ccc(Oc3ccccc3)cc2)o1 | 1730
O=C(CCCCCCc1ccccc1F)C(=O)NCc1nnc(-c2ccccc2)o1 | 607
COc1cccc(OCCCCCC(=O)C(=O)NCc2nnc(-c3cccc(Oc4ccccc4)c3)o2)c1 | 10900

In: Given "O=C(CCCCCCc1ccccc1)C(=O)NCc1nnc(-c2ccc3c(=O)n4c(nc3c2)CCC4)o1" , state its recorded IC50.
Out: 5380

In: Given "O=C(CCCCCCc1ccccc1)C(=O)NCc1nnc(-c2ccccc2)[nH]1" , state its recorded IC50.
Out: 10400

In: Given "O=C(CCCCCOc1cccc(F)c1)C(=O)NCc1nnc(-c2cccc(Oc3ccccc3)c2)o1" , state its recorded IC50.
Out: 3250

###

biological target: human endothelial lipase (EL) (Homo sapiens); test: Endothelial Lipase Assay, cell surface lipase activity (human); conditions: cells expressing human EL, PLA1 substrate 10 μM, fluorescence reaction rate; several values in a cell are repeat determinations
readoutLabel: log10 IC50 (log10 of the value in nM)
A difference of one corresponds to tenfold IC50; all values are log10 with IC50 in nM.

chemicalSmiles | testedTarget | observedValue
O=C(CCCCCCc1ccccc1)C(=O)NCc1nnc(-c2ccc(OCc3cccc(F)c3)cc2)s1 | human endothelial lipase (EL) (Homo sapiens) | 2.11
Cn1ccnc1COc1ccc(-c2nnc(CNC(=O)C(=O)CCCCCCc3ccccc3)o2)cc1 | human endothelial lipase (EL) (Homo sapiens) | 2.97
O=C(CCCCCCc1ccccc1)C(=O)NCc1nnc(-c2ccc(-c3ccccc3)cc2)o1 | human endothelial lipase (EL) (Homo sapiens) | 3.53
CC(=O)Nc1ccc(CCCCCCC(=O)C(=O)NCc2nnc(-c3ccc(OCc4cccc(F)c4)cc3)s2)cn1 | human endothelial lipase (EL) (Homo sapiens) | 2.71
O=C(CCCCCCc1ccccc1)C(=O)NCc1nnc(-c2ccc(OCc3cccc(F)c3)cc2)o1 | human endothelial lipase (EL) (Homo sapiens) | 2.37
CN(c1ccc(Br)cc1)c1ccc(-c2nnc(CNC(=O)C(=O)CCCCCCc3ccccc3)o2)cc1 | human endothelial lipase (EL) (Homo sapiens) | 4.06
O=C(CCCCCCc1ccc2nc(Cl)ccc2c1)C(=O)NCc1nnc(-c2ccccc2)o1 | human endothelial lipase (EL) (Homo sapiens) | 2.75
O=C(CCCCCc1ccccc1)C(=O)NCc1nnc(-c2ccccc2)o1 | human endothelial lipase (EL) (Homo sapiens) | 3.58

In: Given "O=C(CCCCCOc1cccc(F)c1)C(=O)NCc1nnc(-c2ccccc2)o1" , state its recorded log10 IC50.
Out: 3.68

In: Given "O=C(CCCCCOc1ccccc1)C(=O)NCc1nnc(-c2ccc(Oc3ccccc3)cc2)o1" , state its recorded log10 IC50.
Out: 3.42

In: Given "NC(=O)c1cncc(CCCCCCC(=O)C(=O)NCc2nnc(-c3ccc(Oc4ccccc4)cc3)o2)c1" , state its recorded log10 IC50.
Out: 3.20

In: Given "CC(C)(C)OC(=O)c1cccc(COc2ccc(-c3nnc(CNC(=O)C(=O)CCCCCCc4ccccc4)o3)cc2)c1" , state its recorded log10 IC50.
Out: 3.41

In: Given "O=C(CCCCCCc1ccccc1)C(=O)NCc1nnc(-c2ccc(OCc3cccc(Cl)c3)cc2)o1" , state its recorded log10 IC50.
Out: 3.49

In: Given "CN(Cc1ccccc1)c1ccc(-c2nnc(CNC(=O)C(=O)CCCCCCc3ccccc3)o2)cc1" , state its recorded log10 IC50.
Out: 2.70

In: Given "O=C(CCCCCCc1ccccc1)C(=O)NCc1nnc(-c2ccc(OCc3ccccn3)cc2)o1" , state its recorded log10 IC50.
Out: 2.25

In: Given "O=C(CCCCCCc1cccnc1F)C(=O)NCc1nnc(-c2ccc(Oc3ccccc3)cc2)o1" , state its recorded log10 IC50.
Out: 2.99

###

Parameter: pIC50. Scope: all listed entries.
target: Mouse EL (Mus musculus); experiment: Endothelial Lipase Assay, cell surface lipase activity (mouse); details: PLA1 substrate 10 μM, fluorescence reaction rate, several values in a cell are repeat determinations
Sequence (Q9WVG5 21-500): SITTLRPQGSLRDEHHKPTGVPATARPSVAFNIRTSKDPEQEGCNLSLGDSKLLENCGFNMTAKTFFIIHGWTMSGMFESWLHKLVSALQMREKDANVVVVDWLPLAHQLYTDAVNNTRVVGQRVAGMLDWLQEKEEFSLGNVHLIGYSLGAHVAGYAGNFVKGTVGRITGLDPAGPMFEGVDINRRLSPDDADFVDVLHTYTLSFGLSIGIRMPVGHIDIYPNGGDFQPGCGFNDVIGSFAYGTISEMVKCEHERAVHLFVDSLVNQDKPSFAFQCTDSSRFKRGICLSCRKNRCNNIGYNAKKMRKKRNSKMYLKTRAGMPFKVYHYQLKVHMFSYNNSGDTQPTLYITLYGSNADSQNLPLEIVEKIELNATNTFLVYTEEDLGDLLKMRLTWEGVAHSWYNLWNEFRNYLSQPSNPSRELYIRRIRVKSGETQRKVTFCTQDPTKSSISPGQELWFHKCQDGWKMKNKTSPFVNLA
Entry type: numeric. Quantity: pIC50, the -log10 of concentration in molar units.

compound | observedValue
O=C(CCCCCCc1ccccc1)C(=O)NCc1nnc(-c2ccc(OCc3cccc(F)c3)cc2)s1 [Compound 128] | 7.06
O=C(CCCCCCc1ccc(F)nc1)C(=O)NCc1nnc(-c2ccc(OCc3ccccn3)cc2)s1 [Compound 167] | 6.66
O=C(CCCCCCc1ccccc1)C(=O)NCc1nnc(-c2ccc(OCc3cccc(Cl)n3)cc2)s1 [Compound 164] | 6.63

Now for another entry.
In: Given O=C(CCCCCCc1ccccc1)C(=O)NCc1nnc(-c2ccc(OCc3ccccc3)cc2)o1 [Compound 68] , state its recorded pIC50.
Out: 6.91

###

target: human endothelial lipase (EL) (Homo sapiens, UniProt Q9Y5X9); test: Endothelial Lipase Assay, cell surface lipase activity (human); conditions: cells expressing human EL, PLA1 substrate 10 μM, fluorescence reaction rate; several values in a cell are repeat determinations
Parameter: IC50. Scope: all listed entries.
The reply should contain only the number, in nM.

Consider the following illustrative entries.
compound | valueUnits | observedValue
O=C(CCCCCOc1c(F)cccc1F)C(=O)NCc1nnc(-c2ccc(Oc3ccccc3)cc2)o1 [Compound 93] | nM | 3060
CN(C)c1ccc(-c2nnc(CNC(=O)C(=O)CCCCCCc3ccccc3)o2)cc1 [Compound 24] | nM | 16600
Cc1ccc(-c2nnc(CNC(=O)C(=O)CCCCCc3ccc(F)cc3)o2)cc1 [Compound 39] | nM | 643
O=C(CCCCCOc1cc(F)cc(F)c1)C(=O)NCc1nnc(-c2ccc(Oc3ccccc3)cc2)o1 [Compound 95] | nM | 1060
O=C(CCCCCCc1ccc(F)nc1)C(=O)NCc1nnc(-c2ccc(Oc3ccccc3)cc2)o1 [Compound 127] | nM | 308
O=C(CCCCCCc1ccccc1)C(=O)NCc1nnc(-c2ccc(Oc3ccc(F)cc3)cc2)o1 [Compound 106] | nM | 746
COc1cccc(C#CCCCC(=O)C(=O)NCc2nnc(-c3ccccc3)o2)c1 [Compound 40] | nM | 33300
O=C(CCCCCc1ccccc1)C(=O)NCc1nnc(-c2ccc3ccccc3c2)o1 [Compound 34] | nM | 904
O=C(CCCCCCc1ccc(F)nc1)C(=O)NCc1nnc(-c2ccc(OCc3ccnc(Cl)c3)cc2)s1 [Compound 169] | nM | 85
Cc1ccc(-c2nnc(CNC(=O)C(=O)CCCCCc3ccc(-c4ccccc4)cc3)o2)cc1 [Compound 37] | nM | 2530

Now for another entry.
In: Given O=C(CCCCCOc1cc(F)cc(F)c1)C(=O)NCc1nnc(-c2ccc(Oc3ccccc3)cc2)s1 [Compound 133] , state its recorded IC50.
Out: 386

###

Parameter: pIC50. Scope: all listed entries.
Molecular target: human endothelial lipase (EL) (Homo sapiens, UniProt Q9Y5X9)
Sequence (Q9Y5X9 21-500): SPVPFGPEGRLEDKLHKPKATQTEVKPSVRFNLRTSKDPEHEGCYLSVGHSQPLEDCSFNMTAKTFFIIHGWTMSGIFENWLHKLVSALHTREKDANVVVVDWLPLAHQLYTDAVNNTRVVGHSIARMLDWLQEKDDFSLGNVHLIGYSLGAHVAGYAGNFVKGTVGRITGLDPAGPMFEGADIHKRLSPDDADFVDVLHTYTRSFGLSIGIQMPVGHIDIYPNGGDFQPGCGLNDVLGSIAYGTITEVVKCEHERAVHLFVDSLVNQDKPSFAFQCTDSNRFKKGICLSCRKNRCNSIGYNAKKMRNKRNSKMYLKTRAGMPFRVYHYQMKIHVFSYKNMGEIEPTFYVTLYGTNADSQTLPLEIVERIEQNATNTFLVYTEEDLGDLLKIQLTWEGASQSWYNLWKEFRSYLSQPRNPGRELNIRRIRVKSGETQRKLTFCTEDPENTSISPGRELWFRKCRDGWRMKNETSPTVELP
Experiment: Endothelial Lipase Assay, cell surface lipase activity (human)
Settings: cells expressing human EL, PLA1 substrate 10 μM, fluorescence reaction rate; several values in a cell are repeat determinations
Entry type: numeric. Quantity: pIC50, the -log10 of concentration in molar units.

chemicalSmiles | observedValue
CC(C)(C)OC(=O)N(Cc1cccnc1)c1ccc(-c2nnc(CNC(=O)C(=O)CCCCCCc3ccccc3)o2)cc1 | 6.54

In: Given "O=C(CCCCCCc1ccccc1)C(=O)NCc1nnc(-c2ccc(OCc3ccc4ccccc4n3)cc2)o1" , state its recorded pIC50.
Out: 6.25

In: Given "O=C(CCCCCCc1ccccc1)C(=O)NCc1nnc(-c2ccc(OCc3ccccc3)cc2)o1" , state its recorded pIC50.
Out: 6.85

In: Given "N#Cc1cccc(COc2ccc(-c3nnc(CNC(=O)C(=O)CCCCCCc4ccccc4)s3)cc2)c1" , state its recorded pIC50.
Out: 6.38

Where these numbers come from: patent US8476302B2
